Origin of the recorded values: BigSolDB 2.1

assay.context: in 2-butanone, 308.15 K
readout.kind: solubility (mole fraction)

Give the value of solubility (mole fraction) reported for the following: `CN1CCN(C2=Nc3cc(Cl)ccc3Nc3ccccc32)CC1`
0.0416

###

assay.context: in methanol, 283.15 K
readout.kind: solubility (mole fraction)

Give the value of solubility (mole fraction) reported for the following: `CN1CCN(C2=Nc3cc(Cl)ccc3Nc3ccccc32)CC1`
0.00702

###

assay.context: in isopentanol, 288.15 K
readout.kind: solubility (mole fraction)
Numbers only.

Give the value of solubility (mole fraction) reported for the following: `CN1CCN(C2=Nc3cc(Cl)ccc3Nc3ccccc32)CC1`
0.0103

###

assay.context: in n-propanol, 283.15 K
readout.kind: solubility (mole fraction)
Numbers only.

Give the value of solubility (mole fraction) reported for the following: `CN1CCN(C2=Nc3cc(Cl)ccc3Nc3ccccc32)CC1`
0.00814

###

assay.context: in n-butanol, 303.15 K
readout.kind: solubility (mole fraction)
Give bare numbers.

Give the value of solubility (mole fraction) reported for the following: `CN1CCN(C2=Nc3cc(Cl)ccc3Nc3ccccc32)CC1`
0.0141

###

assay.context: in 2-butanone, 303.15 K
readout.kind: solubility (mole fraction)
Give bare numbers.

Give the value of solubility (mole fraction) reported for the following: `CN1CCN(C2=Nc3cc(Cl)ccc3Nc3ccccc32)CC1`
0.0374

###

assay.context: in DMF, 278.15 K
readout.kind: solubility (mole fraction)
Answers are plain numbers.

Give the value of solubility (mole fraction) reported for the following: `CN1CCN(C2=Nc3cc(Cl)ccc3Nc3ccccc32)CC1`
0.0953

###

assay.context: in n-butanol, 298.15 K
readout.kind: solubility (mole fraction)
One number for each entry.

Give the value of solubility (mole fraction) reported for the following: `CN1CCN(C2=Nc3cc(Cl)ccc3Nc3ccccc32)CC1`
0.0126

###

assay.context: in acetonitrile, 283.15 K
readout.kind: solubility (mole fraction)
Answers are plain numbers.

Give the value of solubility (mole fraction) reported for the following: `CN1CCN(C2=Nc3cc(Cl)ccc3Nc3ccccc32)CC1`
0.00234

###

assay.context: in ethyl formate, 283.15 K
readout.kind: solubility (mole fraction)
Answers are plain numbers.

Give the value of solubility (mole fraction) reported for the following: `CN1CCN(C2=Nc3cc(Cl)ccc3Nc3ccccc32)CC1`
0.0343

###

assay.context: in acetonitrile, 313.15 K
readout.kind: solubility (mole fraction)

Give the value of solubility (mole fraction) reported for the following: `CN1CCN(C2=Nc3cc(Cl)ccc3Nc3ccccc32)CC1`
0.00413

###

assay.context: in acetone, 318.15 K
readout.kind: solubility (mole fraction)
Answers are plain numbers.

Give the value of solubility (mole fraction) reported for the following: `CN1CCN(C2=Nc3cc(Cl)ccc3Nc3ccccc32)CC1`
0.0323

###

assay.context: in methyl acetate, 318.15 K
readout.kind: solubility (mole fraction)

Give the value of solubility (mole fraction) reported for the following: `CN1CCN(C2=Nc3cc(Cl)ccc3Nc3ccccc32)CC1`
0.0277

###

assay.context: in n-pentanol, 323.15 K
readout.kind: solubility (mole fraction)
Answers are plain numbers.

Give the value of solubility (mole fraction) reported for the following: `CN1CCN(C2=Nc3cc(Cl)ccc3Nc3ccccc32)CC1`
0.0231

###

assay.context: in acetone, 313.15 K
readout.kind: solubility (mole fraction)
One number for each entry.

Give the value of solubility (mole fraction) reported for the following: `CN1CCN(C2=Nc3cc(Cl)ccc3Nc3ccccc32)CC1`
0.0283
